Where do the numbers come from? From ChEMBL document CHEMBL4364294.

test: AUC (0 to infinity) in dog at 50 mg/kg, po administered as single dose; type: ADME, organism-based, Canis lupus familiaris; design: dose 50 mg/kg, route oral, time infinity; settings: in vivo
readout name: AUC(0-inf) (ng·h/mL)
# output: bare number, implied unit ng·h/mL

Give the value of AUC(0-inf) reported for the following: O[C@H](C[C@H]1c2c(F)cccc2-c2cncn21)[C@H]1CC[C@H](O)CC1
8640

---

test: AUC (0 to infinity) in Sprague-Dawley rat at 10 mg/kg, po administered as single dose; format: ADME, organism-based; design: dose 10 mg/kg, route oral, time infinity; settings: in vivo
readout name: AUC(0-inf)

Give the value of AUC(0-inf) reported for the following: O[C@H](C[C@H]1c2c(F)cccc2-c2cncn21)[C@H]1CC[C@H](O)CC1
1630 ng·h/mL

---

assay: Clearance in dog at 1 mg/kg, iv administered as single dose; type: ADME, organism-based, Canis lupus familiaris; conditions: in vivo
readout name: clearance

Give the value of clearance reported for the following: O[C@H](C[C@H]1c2c(F)cccc2-c2cncn21)[C@H]1CC[C@H](O)CC1 [NAVOXIMOD]
59.3 mL/min/kg

---

assay: Clearance in dog at 10 mg/kg, iv administered as single dose; type: ADME, organism-based, Canis lupus familiaris; conditions: in vivo
readout name: clearance
Give the number first and the unit second.

Give the value of clearance reported for the following: O[C@H](C[C@H]1c2c(F)cccc2-c2cncn21)[C@H]1CC[C@H](O)CC1
53.7 mL/min/kg

---

assay: Cmax in C57Bl6 mouse at 10 mg/kg, po administered as single dose; format: ADME, organism-based; set-up: dose 10 mg/kg, route oral; conditions: in vivo
readout name: Cmax (ng/mL)
# output: bare number, implied unit ng/mL

Give the value of Cmax reported for the following: O[C@H](C[C@H]1c2c(F)cccc2-c2cncn21)[C@H]1CC[C@H](O)CC1
2260

---

assay: Half life in Sprague-Dawley rat at 50 mg/kg, iv administered as single dose; format: ADME, organism-based; details: in vivo
readout name: half-life
Give the number first and the unit second.

Give the value of half-life reported for the following: O[C@H](C[C@H]1c2c(F)cccc2-c2cncn21)[C@H]1CC[C@H](O)CC1
60 min

---

assay: Aqueous solubility of the compound at pH 7.4; assay type: physicochemical
Below: a set of entries, each annotated with reported solubility.
# output: bare number, implied unit µM

O=C(N[C@H]1CC[C@@H](C(O)CC2c3ccccc3-c3cncn32)CC1)c1ccccc1 (some centres undefined)
56
O=C(N[C@H]1CC[C@H](C(O)CC2c3ccccc3-c3cncn32)CC1)c1ccccc1 (some centres undefined)
25

Moving on to the next compound.
Give the value of solubility reported for the following: OC1CCC(C(O)CC2c3c(F)cccc3-c3cncn32)CC1 (centres undefined)
316

---

assay: Oral bioavailability in Sprague-Dawley rat at 25 mg/kg administered as single dose; assay type: ADME, organism-based; settings: in vivo
readout name: bioavailability (%)
# output: bare number, implied unit %

Give the value of bioavailability reported for the following: O[C@H](C[C@H]1c2c(F)cccc2-c2cncn21)[C@H]1CC[C@H](O)CC1
60.4

---

assay: Aqueous solubility of the compound at pH 6.5; type: physicochemical
readout name: solubility (µM)
# output: bare number, implied unit µM

Recorded results for 2 compounds are shown here.
OC1CCC(C(O)CC2c3c(F)cccc3-c3cncn32)CC1 (centres undefined)
329
O=C(N[C@H]1CC[C@@H](C(O)CC2c3ccccc3-c3cncn32)CC1)c1ccccc1 (some centres undefined)
65

Moving on to the next compound.
Give the value of solubility reported for the following: O=C(N[C@H]1CC[C@H](C(O)CC2c3ccccc3-c3cncn32)CC1)c1ccccc1 (some centres undefined)
22
